interaction score for assorted binders
Molecular target: T1, 4H3782-bH
T1 chain: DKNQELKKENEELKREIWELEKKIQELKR
Experiment: two-hybrid library CCNG1;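 further: natural log of median RNA to DNA barcode read ratio; higher means stronger binding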
Write the number on its own, no unit after it.

Recorded results for 5 binders are shown here.
- Binder: "DEIQELEKKIEELKRENWELEKEIQELKR [4H338-bH]"
  Reported result: -0.321
- Binder: "DKNQELKKENEELKREIWELEKKIQELKR [4H3782-bH]"
  Reported result: 0.738
- Binder: "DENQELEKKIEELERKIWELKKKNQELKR [4H1328-bH]"
  Reported result: 0.448
- Binder: "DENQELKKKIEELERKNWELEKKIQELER [4H1845-bH]"
  Reported result: 0.165
- Binder: "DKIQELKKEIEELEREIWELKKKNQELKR [4H2576-bH]"
  Reported result: -0.128

**Q:** Need interaction score of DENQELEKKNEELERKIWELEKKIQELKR [4H1446-bH] , thanks.
**A:** 0.741

**Q:** Need interaction score of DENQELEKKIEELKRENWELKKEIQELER [4H1369-bH] , thanks.
**A:** -0.489
